Assay: inhibitors of intracellular T. cruzi replication, confirmation, NIH3T3 host cells, beta-gal luminescence (AID 2044);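 also: intracellular parasites grown in NIH/3T3 mouse fibroblasts as host cells; luminescent beta-galactosidase reporter signal from transgenic T. cruzi replicating inside host cells; inhibitors lower the luminescence signal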
Assay type: functional, cell-based
Calls of active or inactive are those of the source. Rule as the data show it: actives have a measured EC50 and inactives only a lower limit.
Property Name: EC50

Cc1cc(N/N=C/c2ccc(O)cc2O)nc(-n2nc(C)cc2C)n1 :: 2.05 µM (active)
COc1ccc(C2CC(=O)N(CCCN(C)CCc3ccc(OC)c(OC)c3)C2)cc1 (configuration not stated) :: < 0.1 µM (active)
O=c1c2ccc([N+](=O)[O-])cc2ncn1CCOc1cccc(Br)c1 :: 0.212 µM (active)
Cc1ccc(Nc2c([N+](=O)[O-])nn(-c3ccc4c(c3)OCCO4)[n+]2[O-])c(Cl)c1 :: 0.199 µM (active)
NC(=S)N/N=C/c1ccc2ccccc2c1 :: 0.858 µM (active)
O=C(c1cc(-c2ccncc2)nc2ccccc12)N1CCN(c2ccccn2)CC1 :: 1.1 µM (active)
O=C(/C=C/c1ccc([N+](=O)[O-])cc1)Oc1ccc(/C=N/NC(=O)c2ccncc2)cc1 :: 9.25 µM (active)
